system: biotinyl-Trp-oxazolone; test: self-aminoacylation, catalytic enhancement (BWO) (fold over background); higher = more active; k-Seq, kA / k0A0; sequences stand for … in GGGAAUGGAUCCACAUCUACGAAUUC…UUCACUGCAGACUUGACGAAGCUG
This sample holds only a part of the variants without activity.
Class Fulfilled: self-aminoacylation at least 0.7. Class Not fulfilled: self-aminoacylation below 0.7.

INSERT INTO results (sequence_content, group) VALUES
  ('CUACAUCAAACAAUCGGACUG [Fam1A.1 aminoacylation ribozyme variant]', 'Fulfilled'),
  ('AUUCACCUAAGUCAUCGGGAG [Fam2.2 aminoacylation ribozyme variant]', 'Fulfilled'),
  ('CUACUUCAAAAAAUCGUUCUG [Fam1A.1 aminoacylation ribozyme variant]', 'Not fulfilled'),
  ('AUUACCCGGGUCAUCGAGAGA [Fam2.1 aminoacylation ribozyme variant]', 'Fulfilled'),
  ('AUUACCCUGGUCAUCAAAUGA [Fam2.1 aminoacylation ribozyme variant]', 'Fulfilled'),
  ('CUACUUCAAACAAUCUGUCUU [Fam1A.1 aminoacylation ribozyme variant]', 'Not fulfilled'),
  ('CUCCUUCAAGCAAUCGGUCUG [Fam1A.1 aminoacylation ribozyme variant]', 'Fulfilled');
